System: U2OS
Assay Text: Multiplex assay against U2OS
Assay type: toxicity, cell-based
Experimental Setup: human, 48 h, 10 µM, compound concentration 10 uM, replicate 1
Kindly state Population Hoechst High Intensity Objects (%) for each of the entries shown.
Remember to follow the number with its unit.

Exam item: # input compound: `Cl.O=c1c2cccn2c2ccccc2n1CCCN1CCC(c2ccc(Cl)cc2)CC1` ; wanted: its Population Hoechst High Intensity Objects (%)
Marked response: 12%

Exam item: # input compound: `CCc1cccc(CC)c1NC(=O)c1nn(C)c2c1CCc1cnc(Nc3ccc(C(=O)NC4CCN(C)CC4)cc3OC(F)(F)F)nc1-2` ; wanted: its Population Hoechst High Intensity Objects (%)
Marked response: 5%

Exam item: # input compound: Cc1cn(-c2cc(NC(=O)c3ccc(C)c(Nc4nccc(-c5cccnc5)n4)c3)cc(C(F)(F)F)c2)cn1 [NILOTINIB] ; wanted: its Population Hoechst High Intensity Objects (%)
Marked response: 61%

Exam item: # input compound: `O=C(Nc1ccc(Cl)cc1)Nc1cccc(-c2cccc(N3CCCC3)n2)c1` ; wanted: its Population Hoechst High Intensity Objects (%)
Marked response: 31%

Exam item: # input compound: `Cl.O=C(c1ccc(Nc2nccc(-c3cc4ccccc4s3)n2)cc1)N1CCC(N2CCCC2)CC1` ; wanted: its Population Hoechst High Intensity Objects (%)
Marked response: 26%

Exam item: # input compound: `Cl.Oc1ccc2c3c1O[C@H]1c4[nH]c5c(c4C[C@@]4(O)[C@@H](C2)N(CC2CC2)CC[C@]314)C[C@@]1(O)[C@H]2Cc3ccc(O)c4c3[C@@]1(CCN2CC1CC1)[C@H]5O4` ; wanted: its Population Hoechst High Intensity Objects (%)
Marked response: 3%

Exam item: # input compound: `COc1cc(N2CCN(C)CC2)ccc1Nc1ncc2c(n1)N(C)c1ccccc1C(=O)N2C` ; wanted: its Population Hoechst High Intensity Objects (%)
Marked response: 7%

Exam item: # input compound: `O=C(Nc1ccc(-c2ccnc(Nc3ccc(N4CCOCC4)cc3)n2)cc1)[C@@H]1CCCN1` ; wanted: its Population Hoechst High Intensity Objects (%)
Marked response: 6%

Exam item: # input compound: CCOC(=O)c1c(C)[nH]c2ccc3c(c12)CN1CCc2cc(OC)ccc2C1O3 (stereo unspecified) ; wanted: its Population Hoechst High Intensity Objects (%)
Marked response: 6%

Exam item: # input compound: C=C1/C(=C\C=C2/CCC[C@]3(C)[C@@H]([C@H](C)/C=C/[C@H](C)C(C)C)CC[C@@H]23)C[C@@H](O)C[C@@H]1O [DOXERCALCIFEROL] ; wanted: its Population Hoechst High Intensity Objects (%)
Marked response: 18%

Exam item: # input compound: `CCCS(=O)(=O)c1nc(NC2CC2)cc(-c2ccc3c(ccn3C3CC(C)(C)NC(C)(C)C3)c2)n1` ; wanted: its Population Hoechst High Intensity Objects (%)
Marked response: 7%

Exam item: # input compound: `CCOc1cc(C(=O)N2CCC(N3CCN(C)CC3)CC2)ccc1Nc1ncc2c(n1)N(C1CCCC1)c1ccccc1C(=O)N2C` ; wanted: its Population Hoechst High Intensity Objects (%)
Marked response: 14%

Exam item: # input compound: `Cc1cc(C)c(S(=O)(=O)N(Cc2ccc(-c3cccc(S(C)(=O)=O)c3)cc2)Cc2ccc(C(F)(F)F)o2)c(C)c1` ; wanted: its Population Hoechst High Intensity Objects (%)
Marked response: 3%

Exam item: # input compound: `S=C(NCCCc1c[nH]cn1)NCCCN(Cc1ccc(Cl)c(Cl)c1)c1ccc(Br)cn1` ; wanted: its Population Hoechst High Intensity Objects (%)
Marked response: 22%

Exam item: # input compound: O=C1NC(=O)C(c2cnc3ccccn23)=C1c1cn2c3c(cc(F)cc13)CN(C(=O)N1CCCCC1)CC2 [LY-2090314] ; wanted: its Population Hoechst High Intensity Objects (%)
Marked response: 20%

Exam item: # input compound: CN1C2CCC1CC(OC(c1ccc(F)cc1)c1ccc(F)cc1)C2.Cl (stereo unspecified) ; wanted: its Population Hoechst High Intensity Objects (%)
Marked response: 5%

Exam item: # input compound: CN(C)C(=O)C(CCN1CCC(O)(c2ccc(Cl)cc2)CC1)(c1ccccc1)c1ccccc1.Cl [LOPERAMIDE HYDROCHLORIDE] ; wanted: its Population Hoechst High Intensity Objects (%)
Marked response: 9%

Exam item: # input compound: COCC(=O)NC/C=C/c1ccc2ncnc(Nc3ccc(Oc4ccc(C)nc4)c(C)c3)c2c1 [CP-724714] ; wanted: its Population Hoechst High Intensity Objects (%)
Marked response: 4%

Exam item: # input compound: CCCn1c(=O)c2[nH]c(-c3cnn(Cc4cccc(C(F)(F)F)c4)c3)nc2n(CC)c1=O [GS 6201] ; wanted: its Population Hoechst High Intensity Objects (%)
Marked response: 13%

Exam item: # input compound: `Cc1ccc(C(=O)Nc2cccc(C(F)(F)F)c2)cc1Nc1nc(-c2cccnc2)nc2c1cnn2C` ; wanted: its Population Hoechst High Intensity Objects (%)
Marked response: 10%

Exam item: # input compound: `CCn1c(=O)c(-c2ccc(-c3cncs3)cc2Cl)cc2cnc(Nc3ccc(N4CCN(C)CC4)cc3)nc21` ; wanted: its Population Hoechst High Intensity Objects (%)
Marked response: 80%

Exam item: # input compound: `CNc1cc(Oc2cc(C(=O)Nc3cc(N4CCN(C)CC4)cc(C(F)(F)F)c3)ccc2C)ncn1` ; wanted: its Population Hoechst High Intensity Objects (%)
Marked response: 20%

Exam item: # input compound: O=C(Cc1ccc(-c2ccc(OCCN3CCOCC3)cc2)cn1)NCc1ccccc1 [TIRBANIBULIN] ; wanted: its Population Hoechst High Intensity Objects (%)
Marked response: 10%

Exam item: # input compound: CN1CCN(C(=O)C(C)(C)c2ccc(C(=O)Nc3cn4cc(-c5ccncc5)ccc4n3)cc2)CC1 [T3-CLK] ; wanted: its Population Hoechst High Intensity Objects (%)
Marked response: 16%

Exam item: # input compound: O=C(Nc1ccc(-n2nc(-c3cccnc3)cc2C(F)(F)F)cn1)c1ccc(-c2ccccc2)c(F)c1 [BI 2049] ; wanted: its Population Hoechst High Intensity Objects (%)
Marked response: 3%

Exam item: # input compound: `CCN1CCN(Cc2ccc(Nc3ncc(F)c(-c4cc(F)c5nc(C)n(C(C)C)c5c4)n3)nc2)CC1.CS(=O)(=O)O` ; wanted: its Population Hoechst High Intensity Objects (%)
Marked response: 15%

* * *

Kindly state Population Apoptotic (%) for each of the entries shown.
System: Fibroblast
Assay Text: Multiplex assay against human fibroblast
Type: toxicity, cell-based
Experimental Setup: 24 h, 10 µM, compound concentration 10 uM, replicate 1
Please reply with the bare figure in % and do not write the unit itself.

Exam item: # input compound: `CCN1CCN(Cc2ccc(Nc3ncc(F)c(-c4cc(F)c5nc(C)n(C(C)C)c5c4)n3)nc2)CC1.CS(=O)(=O)O` ; wanted: its Population Apoptotic (%)
Marked response: 80

Exam item: # input compound: `COC(=N)c1nc2ccc3ncnc(Nc4ccc(OC)cc4F)c3c2s1` ; wanted: its Population Apoptotic (%)
Marked response: 65

Exam item: # input compound: `CCN1CCN(c2ccc(Nc3cc(N(C)C(=O)Nc4c(Cl)c(OC)cc(OC)c4Cl)ncn3)cc2)CC1` ; wanted: its Population Apoptotic (%)
Marked response: 68

Exam item: # input compound: `CNc1cc(Oc2cc(C(=O)Nc3cc(N4CCN(C)CC4)cc(C(F)(F)F)c3)ccc2C)ncn1` ; wanted: its Population Apoptotic (%)
Marked response: 80

Exam item: # input compound: `C=C1/C(=C\C=C2/CCC[C@]3(C)[C@@H]([C@H](C)/C=C/[C@H](C)C(C)C)CC[C@@H]23)C[C@@H](O)C[C@@H]1O` ; wanted: its Population Apoptotic (%)
Marked response: 69

Exam item: # input compound: `COc1ccc(S(=O)(=O)N(CCO)c2ccccc2CN(C)C/C=C/c2ccc(Cl)cc2)cc1.O=P(O)(O)O` ; wanted: its Population Apoptotic (%)
Marked response: 69

Exam item: # input compound: `O=C(Nc1cccnn1)N1CCC(=Cc2cccc(Oc3ccc(C(F)(F)F)cn3)c2)CC1` ; wanted: its Population Apoptotic (%)
Marked response: 65

Exam item: # input compound: `COc1cc(N2CCN(C)CC2)ccc1Nc1ncc2c(n1)N(C)c1ccccc1C(=O)N2C` ; wanted: its Population Apoptotic (%)
Marked response: 60

Exam item: # input compound: CCOC(=O)c1c(C)[nH]c2ccc3c(c12)CN1CCc2cc(OC)ccc2C1O3 (stereo unspecified) ; wanted: its Population Apoptotic (%)
Marked response: 70

Exam item: # input compound: `CCc1cccc(CC)c1NC(=O)c1nn(C)c2c1CCc1cnc(Nc3ccc(N4CCN(C)CC4)cc3OC)nc1-2` ; wanted: its Population Apoptotic (%)
Marked response: 72

Exam item: # input compound: `C=CCn1c(=O)c2cnc(Nc3ccc(N4CCN(C)CC4)cc3)nc2n1-c1cccc(C(C)(C)O)n1` ; wanted: its Population Apoptotic (%)
Marked response: 56

Exam item: # input compound: `COc1ccc(-c2ccc3c(N4CCOCC4)nc(N4C[C@@H](C)O[C@@H](C)C4)nc3n2)cc1CO` ; wanted: its Population Apoptotic (%)
Marked response: 59

Exam item: # input compound: `CCOc1cc(C(=O)N2CCC(N3CCN(C)CC3)CC2)ccc1Nc1ncc2c(n1)N(C1CCCC1)c1ccccc1C(=O)N2C` ; wanted: its Population Apoptotic (%)
Marked response: 76

Exam item: # input compound: `Cn1nc(C(F)(F)F)cc1-c1cnc(N2CCc3cc(S(=O)(=O)Nc4c(F)cc(Cl)cc4F)cc(N4CCCC4=O)c32)nc1` ; wanted: its Population Apoptotic (%)
Marked response: 42

Exam item: # input compound: `CCCS(=O)(=O)c1nc(NC2CC2)cc(-c2ccc3c(ccn3C3CC(C)(C)NC(C)(C)C3)c2)n1` ; wanted: its Population Apoptotic (%)
Marked response: 76

Exam item: # input compound: `O=C(Nc1ccc(Cl)cc1)Nc1cccc(-c2cccc(N3CCCC3)n2)c1` ; wanted: its Population Apoptotic (%)
Marked response: 91
